# ASSAY_PROTOCOL: Rat tissue distribution of 99mTc complexes of example ligands (Table 6)
# Type: in vivo, Sprague-Dawley Rats
# PROTOCOL_CONDITIONS: 99mTc complex, Kidney, 60 min
Simple rule here: Kidney tissue distribution less than 10 % ID/g is condition met, otherwise condition not met.

Sample answers from the record:
COMPOUND: N[C@@H](CCCCN(Cc1nccn1CC(=O)O)Cc1nccn1CC(=O)O)C(=O)O (stereo in doubt) [Compound 2]
GROUP_LABEL: condition not met
--
COMPOUND: CCOCCn1ccnc1CN(CCCC[C@H](N)C(=O)O)Cc1nccn1CCOCC (stereo in doubt) [Compound 4]
GROUP_LABEL: condition not met

Problem: Input Cn1ccnc1CN(CCCC[C@H](N)C(=O)O)Cc1nccn1C [Compound 13] ; condition: Kidney tissue distribution strictly below 10 % ID/g. Does it hold?
Solution: condition not met

Problem: Input N[C@@H](CCCCN(Cc1nccs1)Cc1nccs1)C(=O)O [DtK, (dithiazole)lysine] ; condition: Kidney tissue distribution strictly below 10 % ID/g. Does it hold?
Solution: condition met

Problem: Input N[C@@H](CCCCN(Cc1ccccn1)Cc1ccccn1)C(=O)O [DpK, [ε-{N,N-di(pyridyl-2-methyl)}α-lysine], reference compound] ; condition: Kidney tissue distribution strictly below 10 % ID/g. Does it hold?
Solution: condition met

Problem: Input COC(Cn1ccnc1CN(CCCC[C@H](N)C(=O)O)Cc1nccn1CC(OC)OC)OC (stereo in doubt) [Compound 6] ; condition: Kidney tissue distribution strictly below 10 % ID/g. Does it hold?
Solution: condition not met

Problem: Input Cn1ccnc1CN(CCCC[C@H](N)C(=O)O)CC(=O)O [Compound 18] ; condition: Kidney tissue distribution strictly below 10 % ID/g. Does it hold?
Solution: condition met

###

List of Liver tissue distribution values.
# ASSAY_PROTOCOL: Rat tissue distribution of 99mTc complexes of example ligands (Table 6)
# Format: in vivo, Sprague-Dawley Rats
# PROTOCOL_CONDITIONS: 99mTc complex, Liver, 30 min
Number only, in % ID/g; omit the unit.

Summary for this compound, COC(Cn1ccnc1CN(CCCC[C@H](N)C(=O)O)Cc1nccn1CC(OC)OC)OC (stereo in doubt) : Liver tissue distribution is 0.45

###

# ASSAY_PROTOCOL: Rat tissue distribution of 99mTc complexes of example ligands (Table 6)
# Assay type: in vivo, Sprague-Dawley Rats
# PROTOCOL_CONDITIONS: 99mTc complex, Blood, 30 min
MEASUREMENT_NAME: Blood tissue distribution (% ID/g)
Number only, in % ID/g; omit the unit.

Example results:
COMPOUND: N[C@@H](CCCCN(Cc1nccn1CC(=O)O)Cc1nccn1CC(=O)O)C(=O)O (stereo in doubt)
Blood tissue distribution (% ID/g): 1.14
--
COMPOUND: N[C@@H](CCCCN(Cc1nccs1)Cc1nccs1)C(=O)O
Blood tissue distribution (% ID/g): 2.33
--
COMPOUND: CCOCCn1ccnc1CN(CCCC[C@H](N)C(=O)O)Cc1nccn1CCOCC (stereo in doubt)
Blood tissue distribution (% ID/g): 0.09

// below: Blood tissue distribution requested for another compound
Summary for this compound, `Cn1ccnc1CN(CCCC[C@H](N)C(=O)O)CC(=O)O` : Blood tissue distribution is 0.45

###

List of Liver tissue distribution values.
# ASSAY_PROTOCOL: Rat tissue distribution of 99mTc complexes of example ligands (Table 6)
# Format: in vivo, Sprague-Dawley Rats
# PROTOCOL_CONDITIONS: 99mTc complex, Liver, 120 min
Number only, in % ID/g; omit the unit.

MOLECULE: Cn1ccnc1CN(CCCC[C@H](N)C(=O)O)CC(=O)O
Liver tissue distribution / % ID/g: 0.44
//
MOLECULE: Cn1ccnc1CN(CCCC[C@H](N)C(=O)O)Cc1nccn1C
Liver tissue distribution / % ID/g: 0.74
//
MOLECULE: CCOCCn1ccnc1CN(CCCC[C@H](N)C(=O)O)Cc1nccn1CCOCC (stereo in doubt)
Liver tissue distribution / % ID/g: 0.14

// below: Liver tissue distribution requested for another molecule
Summary for this molecule, N[C@@H](CCCCN(Cc1ccccn1)Cc1ccccn1)C(=O)O [DpK, [ε-{N,N-di(pyridyl-2-methyl)}α-lysine], reference compound] : Liver tissue distribution is 2.20
